Below, each entry is listed with its recorded IC50.
test system: Trypanosoma brucei brucei; assay: GSK_TCAKS: pIC50 Trypanosoma brucei viability assay using fluorescence intensity. Assay plates (1536-well) were prepared by dispensing 25nL of compound solution per well using an Echo acoustic dispenser (Labcyte).; assay type: functional, organism-based; conditions: Lister 427, 2 h
Numeric answer only, unit nM assumed.

Worked cases, IC50 given:
{"columns": ["COMPOUND", "IC50 / nM"],
 "data": [
  ["CNS(=O)(=O)c1ccccc1Nc1nc(Nc2cc(C)nn2C)ncc1Cl", 63.1],
  ["COc1ccc(-c2nc3ccncc3c(=O)n2CCOc2ccccc2)cc1", 25100],
  ["CCCC(=O)N(Cc1ccccn1)c1nc2ccccc2s1", 20000],
  ["CNC(=O)C1Cc2ccccc2N1C(=O)Cc1ccc(F)cc1 (stereo not drawn)", 251],
  ["O=C(NCc1ccncc1)c1ccccc1N1CCCN(C(=O)Cc2ccc(F)c(F)c2)CC1", 6310]
]}

Query string: Look up and report measured IC50 for this entry: Cc1cn[nH]c1C1CCCN(Cc2nc3ccccc3n2C)C1 (stereo not drawn)
Result string: 6310

Query string: Look up and report measured IC50 for this entry: `CC(=O)Nc1cccc(Nc2ncnc3[nH]cnc23)c1`
Result string: 126

Query string: Look up and report measured IC50 for this entry: `N#Cc1cc([N+](=O)[O-])ccc1NC1CCCCCC1`
Result string: 2510
